Tested on: OVCAR-5
Assay: NCI tumour cell line growth inhibition, 48 h
The source made the active and inactive calls. No stated cut-off is given here; in the data, active = GI50 up to about 1.1 µM and inactive = higher.
Labels: active, inactive

* COc1cc(OC)c(/C=N/N=C(\N)NO)c(OC)c1 | inactive
* COc1ccc(-c2nc(O)c3ccccc3n2)cc1 | inactive
* C[P+]1(c2ccccc2)CCCCC1 | inactive
* CCCCCCCN(CCCCCCC)CC(O)c1cc2ccccc2c2cc(Br)ccc12 (configuration not stated) | inactive
* CCN(CCO)CC1COc2ccccc2O1 (configuration not stated) | inactive
* Cc1ccc(Oc2ccccc2N)cc1 | inactive
* O=c1oc2c3ccc4ccccc4c3n(CCN3CCCCC3)c2c2ccccc12 | inactive
* CCOc1c(Cc2ccccc2)c(=O)n2c3ccccc3n3c(=O)n(C)c(=O)c1c23 | inactive
* CS(=O)(=O)CCC(N)P(=O)(O)O (configuration not stated) | inactive
* COc1cc(OC)c2c(c1)C(=O)C(CC1(C)OCCCO1)=CC2=O | inactive
* Cc1ccc(/N=N/c2c(O)c(C(=O)O)cc3ccccc23)c(S(=O)(=O)O)c1 | inactive
* CCN1C[C@]2(C)CC[C@H](OC)C34C5C[C@@H]6[C@@H](OC)C[C@@](OC)(C5[C@H]6OCc5ccccc5)C(C13)[C@H](OC(C)=O)[C@@H]42 (some centres not stated) | inactive
* CC(=O)Nc1ccc2c3c(cc(O)c2c1)N(C(=O)CCCCCC(=O)N1CC(CCl)c2c1cc(O)c1cc(NC(C)=O)ccc21)CC3CCl (configuration not stated) | active
* Cc1ccc(C2(c3ccc(Cl)cc3)c3ccccc3C3=NCCN32)cc1 (configuration not stated) | inactive
* COC(=O)C12CC(c3ccccc31)C1C(=O)OC(=O)C12 (configuration not stated) | inactive
* O=C(CCCN1CCC2(CC1)OC(=O)N(c1ccccc1)C2=O)c1ccccc1 | inactive
* O=C1C(C(O)(C(F)(F)Cl)C(F)(F)Cl)CCCC1C(O)(C(F)(F)Cl)C(F)(F)Cl (configuration not stated) | inactive
* Nc1nc(SCC(=O)O)nc(O)c1N | inactive
* O=C1ON=C2C3CC4CC12CC1(C3)C(=O)ON=C41 | inactive
* O=C1NN=C(c2c[nH]c3ccccc23)CC1NCc1ccccc1 (configuration not stated) | inactive
* COC(=O)C1=C(C(=O)OC)SC2(S1)C(C(=O)OC)=C(C(=O)OC)Sc1c2ss/c1=N\c1ccc(Cl)cc1 | inactive
* C=C1CC2(C[C@@H](c3ccccc3)O[C@@H](c3ccccc3)C2)OC1=O (some centres not stated) | inactive

---

Tested on: MDA-N
Test: NCI tumour cell line growth inhibition, 48 h
Active and inactive are the calls of the source. Rule as the data show it: active = GI50 up to about 1.1 µM and inactive = higher.
Parameter: GI50. Scope: all listed entries.
OBSERVABLE: GI50

• O=C1/C(=C/c2cccs2)NC(=S)N1CN1CCCC(CO)C1 (centres undefined) = > 100 µM (inactive)
• CCN1C[C@]2(C)CC[C@H](OC)C34C5C[C@@H]6[C@@H](OC)C[C@@](OC)(C5[C@H]6OCc5ccccc5)C(C13)[C@H](OC(C)=O)[C@@H]42 (some centres undefined) = > 100 µM (inactive)
• COc1cc(OC)cc(-c2cc(=O)c3c(OC)c(OC)c(OC)c(OC)c3o2)c1 = 41.2 µM (inactive)
• COC(=O)C(=O)C(C(=O)C(=O)Nc1ccc(C)c(C)c1)c1nc2ccc([N+](=O)[O-])cc2nc1O (centres undefined) = > 100 µM (inactive)
• COC(=O)C1=C(C(=O)OC)SC2(S1)C(C(=O)OC)=C(C(=O)OC)Sc1c2ss/c1=N\c1ccc(Cl)cc1 = 0.47 µM (active)
• CC(=O)OC(OC(C)=O)c1c2ccccc2cc2ccccc12 = 22 µM (inactive)
• CN(C)c1ccc(/C=C2\N=C(N/N=C/c3ccccc3O)NC2=O)cc1 = 39.1 µM (inactive)
• C[C@@H]1[C@@H](C)C(c2ccccc2)O[Si]1(C(C)(C)C)C(C)(C)C (some centres undefined) = 22.5 µM (inactive)
• C[N+]1(C)C2Cc3ccccc3C1Cc1ccccc12 = 78.2 µM (inactive)

---

Test system: Hs-578T
Test: NCI tumour cell line growth inhibition, 48 h
Active and inactive are the calls of the source. Rule as the data show it: active = GI50 up to about 1.1 µM and inactive = higher.
Classes used: active, inactive

- CCC1CC(=O)N(SCC(N)C(=O)O)C1=O (centres undefined): inactive
- CC(=O)N1C(=O)c2cc3ccccc3cc21: inactive
- NC(Cc1ccc(CP(=O)(O)O)cc1)C(=O)O (centres undefined): inactive
- CCN1C[C@]2(C)CC[C@H](OC)C34C5C[C@@H]6[C@@H](OC)C[C@@](OC)(C5[C@H]6OCc5ccccc5)C(C13)[C@H](OC(C)=O)[C@@H]42 (some centres undefined): inactive
- CC(=O)Nc1ccccc1S(=O)(=O)c1c(-c2c(C)c(Cl)c(C)c(Cl)c2C)noc1C: inactive
- Cc1ccc(Cc2n[nH]c(=O)[nH]2)cc1: inactive
- CC1OC(O)CC(N(C)C)C1O.CC1OC(O)CCC1O.CCC1CC(O)c2c(O)c3c(c(O)c2C1O)C(=O)c1cccc(O)c1C3=O (centres undefined): active
- O=[N+]([O-])c1cccc(-c2cn3c(n2)Cc2ccccc2C3)c1: inactive
- O=C1CCCCc2cccc(O)c21: inactive
- CC1=C(Br)C(=O)c2c(O)ccc(O)c2C1=O: inactive
- CC(=O)OCC1(CNc2nc(N)ncc2C#N)CC(CCc2ccccc2)C1 (centres undefined): inactive
- CC(C)(C)OC(=O)N(CCCCNCc1ccc2ccccc2c1)CCCNCc1ccc2ccccc2c1: inactive
- O=S(=O)(Nc1nc2ccccc2nc1Nc1ccc2ccccc2c1)c1ccccc1: inactive
- Cc1c(C)c2c(c(N)c1C#N)C(=O)N(NC(=S)Nc1ccccc1)C2=O: inactive
- CCN(CCCOc1ccccc1)CCN(CC)CCCOc1ccccc1: inactive
- Cc1ccc(/N=N/c2ccc(O)c(CN(C)C)c2)cc1C: inactive
- N#CCCSC1SC(=C2SC3=C(SCCS3)S2)SC1SCCC#N (centres undefined): inactive
- CCOC(=O)c1ccc(/N=C2\SC(=S)N(c3ccc(F)cc3)\C2=N/c2ccc(C(=O)OCC)cc2)cc1: inactive
- O=C(CNc1cccc(Cl)c1)Nn1c(-c2ccccc2)nc2ccccc2c1=O: inactive
- O=C(O)c1cscc1Cc1cccs1: inactive
- COC(=O)c1ccc(C)cc1/C=C1\Cc2ccc(C)cc2C1=O: inactive
- CO/N=C(\C)c1cccc(Nc2nc3ccccc3c3occc23)c1: inactive
- Oc1cc(-c2cccc(Br)c2)nc2cc3c(cc12)OCO3: inactive
- N/C(=N\Nc1cccc(Cl)c1)c1cccnc1: inactive
- O=C(N/N=C\c1ccc([N+](=O)[O-])s1)c1ccncc1: inactive
- CC(C)C(O)(C(=O)OCN1C(=O)C2C3C=CC(C2C1=O)C1C2C(=O)N(COC(=O)C(O)(C(C)C)C(C)O)C(=O)C2C31)C(C)O (centres undefined): inactive
- O=C(O)CCN(CCC(=O)O)c1ccc(/C=C2\SC(=S)NC2=O)cc1: inactive
- COC(=O)C1=C(C(=O)OC)SC2(S1)C(C(=O)OC)=C(C(=O)OC)Sc1c2ss/c1=N\c1ccc(Cl)cc1: inactive
- CC1=CC(=O)c2ccc(C)cc2C1=O: inactive
- CCOC(=O)/C=C/CC(C)(C)COC(C)=O: active
- Fc1ccc(Nc2nc(Cl)c3nc[nH]c3n2)cc1Cl: inactive
- Cc1ccc(C)c(C2NC(=O)c3ccccc3N2)c1 (centres undefined): active
- O=C(CCCN1CCC2(CC1)OC(=O)N(c1ccccc1)C2=O)c1ccccc1: inactive
- O=C1OC[C@H]2[C@@H]1[C@H]1O[C@@H]2C2=C(CCC2)C1=O: inactive
- O=C1N/C(=N/N=C/C(O)C(O)C(O)CO)N/C1=C\c1ccco1 (centres undefined): inactive
- COP(=O)(Cc1ccccc1)Cc1ccccc1: inactive
- Cc1ccc(C[N+](C)(C)N)cc1C: inactive
- CC1=C(C(=O)Nc2ccccc2)C2(CCCCC2)C(C#N)=C(SCC(=O)Nc2ccc(Br)cc2)N1: inactive
- CC(=O)N1C(CCc2ccccc2)CC(C)(C=O)C1Cc1ccc(O[Si](C(C)C)(C(C)C)C(C)C)cc1 (centres undefined): inactive
- O=C1CCCCC(=O)Nc2ccccc2N1: inactive
- C[C@@H]1[C@@H](C)C(c2ccccc2)O[Si]1(C(C)(C)C)C(C)(C)C (some centres undefined): inactive
- Cc1nc(C(N)=S)sc1C(=O)C/C(=N/N)C(=O)Nc1cccc(Cl)c1C: inactive
- O=C1CC(C(O)CO)CC(=O)N1 (centres undefined): inactive
- COc1ccc(C(SCCO)(c2ccc(OC)cc2)c2ccc(OC)cc2)cc1: inactive

---

Reported GI50 values follow for various molecules
Tested on: IGROV-1
Experiment: NCI tumour cell line growth inhibition, 48 h
Activity calls are given as the source filed them. No stated cut-off is given here; in the data, active = GI50 up to about 1.1 µM and inactive = higher.
OBSERVABLE: GI50

* O=C1CC2OCC=C3CN4CCC5(C(=O)O)C(N1)C2C3CC45 (configuration not stated) | > 100 µM (inactive)
* CCC(=O)/C=C/c1ccccc1 | 76.9 µM (inactive)
* COc1cc2c(cc1OC)C(Cc1ccccc1CCCl)=NCC2 | 27 µM (inactive)
* N#CC(OC1OC(COC2OC(CO)C(O)C(O)C2O)C(O)C(O)C1O)c1ccccc1 (configuration not stated) | > 225 µM (inactive)
* N#CCCSC1SC(=C2SC3=C(SCCS3)S2)SC1SCCC#N (configuration not stated) | > 100 µM (inactive)
* C[NH+]1[C@@H](Cc2ccccc2)C(=O)O[B-]1(F)c1ccccc1 (some centres not stated) | > 100 µM (inactive)
* Cc1cccc(C)c1NC(=O)CCC(=O)NC(N)=S | > 100 µM (inactive)
